Test system: RSV strain A2
Assay: microbe, parasite or virus in culture
Assay type: cell-based
Conditions: Table 3; HEp-2 cells, RSV A2, 4 days; read-out: RSV HEp-2 EC50
pEC50: −log10 of the molar value.
value-type: pEC50

molecule	test-target	value-type	test-result
CC(C)C(=O)OC1C(c2ccc3c(N)ncnn23)OC(C#N)(COP(=O)(NC(C)C(=O)OCC2CCC(N)CC2)Oc2ccccc2)C1OC(=O)C(C)C (single isomer, unassigned) [Example 208]	RSV strain A2	pEC50	5.67
CCC(=O)O[C@H]1[C@H](c2ccc3c(N)ncnn23)O[C@](C#N)(CO[P@](=O)(N[C@@H](C)C(=O)OC2CCC2)Oc2ccccc2)[C@H]1OC(=O)CC	RSV strain A2	pEC50	7.38
C/C(=N\c1ncnn2c([C@@H]3O[C@](C#N)(COP(=O)(N[C@@H](C)C(=O)OC4CCOCC4)Oc4ccccc4)[C@@H](OC(=O)C(C)C)[C@H]3OC(=O)C(C)C)ccc12)N(C)C (stereo partly drawn)	RSV strain A2	pEC50	7.17

----------
Tested on: Dengue serotype 2 New Guinea C (NGC) strain
Assay: DENV-2 Huh-7 EC50 (qPCR in Huh7 cells)
Format: cell-based
Settings: Dengue virus, DENV2, Huh-7; Table 3; Huh7 cells, 48 hours; read-out: DENV-2 Huh7 EC50
Protocol: Huh7 (Human hepatocarcinoma 7) cells were maintained in 10% FCS-containing DMEM complete media. On the day of the assay, cells were trypsinized (0.1% Trypsin-EDTA), washed and infected for 2 hours in serum-free DMEM with Dengue serotype 2 New Guinea C (NGC) strain at MOI=0.1 with gentle agitation at 37° C. […] EC50 values were determined using Prism Graphpad software, with normalization to a positive control and no compound negative control wells.

molecule	EC50, nM
CCOC(=O)[C@H](C)N[P@](=O)(OC[C@@]1(C#N)O[C@@H](c2ccc3c(N)ncnn23)[C@H](OC(=O)C(C)C)[C@@H]1OC(=O)C(C)C)Oc1ccccc1 (single isomer, unassigned) [Example 144]	1180
COC(=O)[C@H](C)N[P@](=O)(OC[C@@]1(C#N)O[C@@H](c2ccc3c(=N)n(COP(=O)(O)O)cnn23)[C@H](OC(=O)C(C)C)[C@@H]1OC(=O)C(C)C)Oc1ccccc1 [Example 259]	1860
CCC(CC)COC(=O)[C@H](C)N[P@](=O)(OC[C@@]1(C#N)O[C@@H](c2ccc3c(N)ncnn23)C(OC(=O)C(C)C)[C@@H]1OC(=O)C(C)C)Oc1ccccc1 (stereo in doubt) [Example 86]	1410
CC(C)C(=O)O[C@H]1[C@H](c2ccc3c(N)ncnn23)O[C@](C#N)(CO[P@@](=O)(N[C@@H](C)C(=O)OC2CCCCC2)Oc2ccccc2)[C@H]1OC(=O)C(C)C [Example 77]	1490
CCC(=O)O[C@H]1[C@H](c2ccc3c(N)ncnn23)O[C@](C#N)(CO[P@@](=O)(N[C@@H](C)C(=O)OC)Oc2ccccc2)[C@H]1OC(=O)CC (single isomer, unassigned) [Example 143]	3130
CCC(=O)O[C@H]1[C@H](c2ccc3c(N)ncnn23)O[C@](C#N)(CO[P@@](=O)(N[C@@H](C)C(=O)OC(C)C)Oc2ccccc2)[C@H]1OC(=O)CC [Example 90]	2160
CCC(=O)O[C@H]1[C@H](c2ccc3c(N)ncnn23)O[C@](C#N)(CO[P@@](=O)(N[C@@H](C)C(=O)OC2CCCCC2)Oc2ccccc2)[C@H]1OC(=O)CC [Example 82]	3980
COC(=O)[C@H](C)N[P@](=O)(OC[C@@]1(C#N)O[C@@H](c2ccc3c(N)ncnn23)[C@H](OC(=O)C(C)C)[C@@H]1OC(=O)C(C)C)Oc1ccccc1 (single isomer, unassigned) [Example 140]	1220

----------
Quick list: EC50 per entry.
Test system: RSV A2
Assay: RSV NHBE EC50 (RSV A2 antiviral assay in NHBE cells)
Type: cell-based
Conditions: human respiratory syncytial virus, NHBE, Table 5 comparative activity, 2',3'-OH vs -OC(O)iPr; read-out: RSV NHBE EC50

compound	unit-of-measurement	censoring-qualifier	EC50
C[C@H](NP(=O)(OC[C@@]1(C#N)O[C@@H](c2ccc3c(N)ncnn23)[C@H](O)[C@@H]1O)Oc1ccccc1)C(=O)OC1CCN(C)CC1 (stereo partly shown) [Example 19]	nM	>	5000
CCOC(=O)[C@H](C)N[P@](=O)(OC[C@@]1(C#N)O[C@@H](c2ccc3c(N)ncnn23)[C@H](OC(=O)C(C)C)[C@@H]1OC(=O)C(C)C)Oc1ccccc1 (single isomer, unassigned) [Example 144]	nM	=	22
CC(C)C(=O)O[C@H]1[C@H](c2ccc3c(N)ncnn23)O[C@](C#N)(COP(=O)(N[C@@H](C)C(=O)OC2CCN(C)CC2)Oc2ccccc2)[C@H]1OC(=O)C(C)C (stereo partly shown) [Example 162]	nM	=	28
CC(C)C(=O)O[C@H]1[C@H](c2ccc3c(N)ncnn23)O[C@](C#N)(COP(=O)(N[C@@H](C)C(=O)O[C@H]2CCN(C)C2)Oc2ccccc2)[C@H]1OC(=O)C(C)C (stereo partly shown) [Example 228]	nM	=	59
C[C@H](NP(=O)(OC[C@@]1(C#N)O[C@@H](c2ccc3c(N)ncnn23)[C@H](O)[C@@H]1O)Oc1ccccc1)C(=O)OC1COC1 (stereo partly shown) [Example 44]	nM	=	1800
COC(=O)[C@H](C)N[P@](=O)(OC[C@@]1(C#N)O[C@@H](c2ccc3c(N)ncnn23)[C@H](OC(=O)C(C)C)[C@@H]1OC(=O)C(C)C)Oc1ccccc1 (single isomer, unassigned) [Example 140]	nM	=	14
CCOC(=O)[C@H](C)NP(=O)(N[C@@H](C)C(=O)OCC)OC[C@@]1(C#N)O[C@@H](c2ccc3c(N)ncnn23)[C@H](OC(=O)C(C)C)[C@@H]1OC(=O)C(C)C [Example 137]	nM	=	65
COC(=O)[C@H](C)N[P@](=O)(OC[C@@]1(C#N)O[C@@H](c2ccc3c(N)ncnn23)[C@H](O)[C@@H]1O)Oc1ccccc1 [Example 52]	nM	=	252
CC(C)C(=O)O[C@H]1[C@H](c2ccc3c(N)ncnn23)O[C@](C#N)(COP(=O)(N[C@@H](C)C(=O)OCC2CCOCC2)Oc2ccccc2)[C@H]1OC(=O)C(C)C (mixture of isomers) [Example 181]	nM	=	30
CCOC(=O)[C@H](C)N[P@](=O)(OC[C@@]1(C#N)O[C@@H](c2ccc3c(N)ncnn23)[C@H](O)[C@@H]1O)Oc1ccccc1 [Example 29]	nM	=	932

----------
Test system: RSV strain A2
Assay: microbe, parasite or virus in culture
Format: cell-based
Details: Table 3; HEp-2 cells, RSV A2, 4 days; read-out: RSV HEp-2 EC50
value-type: log10 of EC50 (log10 of the value in nM)

compound	value-type	test-result
CC(C)C(=O)O[C@H]1[C@H](c2ccc3c(N)ncnn23)O[C@](C#N)(COP(=O)(N[C@@H](C)C(=O)OC2COC2)Oc2ccccc2)[C@H]1OC(=O)C(C)C (single isomer, unassigned) [Example 185]	log10 of EC50	1.41
CC(C)C(=O)O[C@H]1[C@H](c2ccc3c(N)ncnn23)O[C@](C#N)(COP(=O)(N[C@@H](C)C(=O)OCC2CCOCC2)Oc2ccccc2)[C@H]1OC(=O)C(C)C (single isomer, unassigned) [Example 182]	log10 of EC50	1.94
CCC(=O)O[C@H]1[C@H](c2ccc3c(N)ncnn23)O[C@](C#N)(CO[P@](=O)(N[C@@H](C)C(=O)OCC2CCOCC2)Oc2ccccc2)[C@H]1OC(=O)CC	log10 of EC50	2.01
CCCCOC(=O)C(C)NP(=O)(OCC1(C#N)OC(c2ccc3c(N)ncnn23)C(OC(=O)C(C)C)C1OC(=O)C(C)C)Oc1ccccc1 (single isomer, unassigned) [Example 227]	log10 of EC50	1.23
CCC(=O)OC1C(c2ccc3c(N)ncnn23)OC(C#N)(COP(=O)(NC(C)C(=O)OCC2CCC2)Oc2ccccc2)C1OC(=O)CC (stereo not shown) [Example 93]	log10 of EC50	1.68
CC(C)C(=O)O[C@H]1[C@H](c2ccc3c(N)ncnn23)O[C@](C#N)(COP(=O)(N[C@@H](C)C(=O)OC2CCC2)Oc2ccccc2)[C@H]1OC(=O)C(C)C (stereo partly shown)	log10 of EC50	1.45
CC(C)C(=O)OC1C(c2ccc3c(N)ncnn23)OC(C#N)(COP(=O)(NC(C)C(=O)OC2CCN(C)C2)Oc2ccccc2)C1OC(=O)C(C)C (single isomer, unassigned) [Example 233]	log10 of EC50	2.10
C[C@H](NP(=O)(OC[C@@]1(C#N)O[C@@H](c2ccc3c(N)ncnn23)[C@H](OC(=O)C(C)(C)C)[C@@H]1OC(=O)C(C)(C)C)Oc1ccccc1)C(=O)OC1CCOCC1 (single isomer, unassigned) [Example 173]	log10 of EC50	2.41
CC(C)C(=O)O[C@H]1[C@H](c2ccc3c(/N=C/N(C)C)ncnn23)O[C@](C#N)(COP(=O)(N[C@@H](C)C(=O)OC2CCOCC2)Oc2ccccc2)[C@H]1OC(=O)C(C)C (stereo partly shown)	log10 of EC50	1.48
CCC(=O)O[C@H]1[C@H](c2ccc3c(N)ncnn23)O[C@](C#N)(COP(=O)(N[C@@H](C)C(=O)OC2COC2)Oc2ccccc2)[C@H]1OC(=O)CC (single isomer, unassigned) [Example 176]	log10 of EC50	2.26

src = patent US12264173B2
